# System: SK-OV-3 ovarian
# TEST DESCRIPTION: NCI-60 one-dose screen, 48 h
# CONDITION SUMMARY: 10 µM unless noted
This is part of a sample that, as a whole, favours compounds with a hit. Of some 83,000 tested, about 20% had one in any assay. Activity calls are given as the source filed them. How the source made its calls: active means growth percent below 10; inactive means the rest.
Give one outcome, nothing more. List: active, inactive

Worked examples follow.
• O=C(Nc1ccc(Oc2ccc(NC(=O)Nc3ccc([N+](=O)[O-])cc3)cc2)cc1)Nc1ccc([N+](=O)[O-])cc1 = inactive
• O=NC1CC=CCC1c1ccccc1 (stereo not drawn) = inactive
• C=C(C[C@](O)(C(=O)/C=C/c1ccc(Cl)cc1)C(=O)OC)c1ccccc1 = inactive

Task item: Test call for this compound, please: CNc1ccc(CSc2ccc(Cl)cc2)cc1
Reply: inactive

Task item: Test call for this compound, please: Nc1nc(SCC2(CCl)COC2)c2[nH]cnc2n1
Reply: inactive

Task item: Test call for this compound, please: CC12CCC3C(CCC4CC(=O)/C(=C\O)CC43C)C1CCC(=O)O2 (stereo not drawn)
Reply: inactive

Task item: Test call for this compound, please: COc1ccc2c(c1)[nH]c(=O)c1c3cc(OC)c(OC)cc3cn21
Reply: inactive

Task item: Test call for this compound, please: COc1cccc2c1O/C(=C\c1c([N+](=O)[O-])ncn1C)C2=O
Reply: inactive

Task item: Test call for this compound, please: COc1ccc2c(c1)/C(=C\c1c[nH]c3ccc(F)cc13)C(=O)N2
Reply: inactive

Task item: Test call for this compound, please: CN(CC(=O)Nc1nc2ccccc2[nH]1)S(=O)(=O)c1ccc(Cl)cc1
Reply: inactive

Task item: Test call for this compound, please: CCCCn1c(Cc2ccc(Cl)cc2)nc2cc(OC)c(OC)cc2c1=O
Reply: inactive

Task item: Test call for this compound, please: Cc1nn(-c2ccc(Cl)cc2)c2nc3c(nc12)C(=O)C(=O)c1ccccc1-3
Reply: inactive

Task item: Test call for this compound, please: COC(=O)[C@]1(C(C)C)N[C@H](c2cn(-c3ccccc3)nc2-c2ccccc2)[C@@H]2C(=O)N(c3ccc(Cl)cc3)C(=O)[C@@H]21
Reply: inactive

Task item: Test call for this compound, please: C=C(C)[C@@H]1C/C=C(/C=O)CC[C@@H]2O[C@@]2(C)CC/C=C(\C)CC1
Reply: inactive

Task item: Test call for this compound, please: O=C(NCCc1ccccc1)C1CCC(=O)N1Cc1ccc(Br)cc1 (stereo not drawn)
Reply: inactive

Task item: Test call for this compound, please: NC(=O)NN=C(C1CC1)C1CC1
Reply: inactive

Task item: Test call for this compound, please: CN(CCOc1ccc(CC2SC(=O)NC2=O)cc1)c1ccccn1 (stereo not drawn)
Reply: inactive

Task item: Test call for this compound, please: CCOc1cc(-c2ccc[nH]2)[nH]c1/C=C1\N=C(C)C(C(=O)OC)=C1C
Reply: active

Task item: Test call for this compound, please: CC1=CSC2=NCCN12
Reply: inactive

Task item: Test call for this compound, please: Cc1ccsc1/C=C/C1=NCCCN1C
Reply: inactive

Task item: Test call for this compound, please: CCCCCCOc1ccc(/C=N/NC(N)=S)cc1
Reply: inactive

Task item: Test call for this compound, please: CC(NC(=O)C(C)Oc1ccc(Cl)cc1Cl)C(=O)O (stereo not drawn)
Reply: inactive

Task item: Test call for this compound, please: c1ccc(-c2nn[nH]n2)c(-c2ccc(CN3CCN(c4nsc5ccccc45)CC3)cc2)c1
Reply: inactive
